Origin of the recorded values: the antibiotic and cytotoxicity screens of Wong et al. (2023)

# Test system: HepG2
# assay method text: cytotoxicity call (relative viability < 0.9)
# settings: 10 µM
The whole screen tested about 39,000 compounds, of which about 3,300 (8.5%) were called active. The sample holds actives, similar compounds and a random draw of the others, so the mix is not that of the screen.
Your reply should match one of these outcome classes. Y = active, N = inactive

Study these solved cases before continuing.
molecule | cat
CC12CCC3c4ccc(OC(=O)N(CCCl)CCCl)cc4CCC3C1CCC2O (stereo not given) | Y
NC(N)=NOCC[C@H](N)C(=O)O | N
CCCCCCCCCC(=O)O[C@@H]1[C@@H](C)[C@@]2(O)[C@@H](C=C(CO)C[C@]3(O)C(=O)C(C)=C[C@@H]23)[C@@H]2C(C)(C)[C@]12OC(=O)CCCCCCCCC | N

Test call for this molecule, please: NC(Cc1ccccc1)Cc1ccccc1 N

Test call for this molecule, please: CN1C[C@@H]2CNC[C@@H]2C1=O N

Test call for this molecule, please: N[C@@H](Cn1oc(=O)[nH]c1=O)C(=O)O N

Test call for this molecule, please: O=[N+]([O-])c1ccc2c3c(cccc13)CC2 N

Test call for this molecule, please: CC(C)N(CCC(C(N)=O)(c1ccccc1)c1ccccn1)C(C)C.O=P(O)(O)O (stereo not given) N

Test call for this molecule, please: O=C([O-])Cc1ccccc1.[Na+] N

====

# Tested on: HepG2
# assay method text: cytotoxicity call (relative viability < 0.9)
# settings: 10 µM
The campaign covered roughly 39,000 compounds. About 3,300 (8.5%) were called active. Many of the other results were omitted from the sample, so actives are more common in it than they were.
Your reply should match one of these outcome classes. y for active, n for inactive

Study these solved cases before continuing.
molecule | measurement target | cat
O=C1CC2OCC=C3CN4CCC56c7ccccc7N1C5C2C3CC46.O=S(=O)(O)O (centres undefined) | HepG2 | y
CC(=O)OC1CC2(C)C(c3ccoc3)CC3OC32C2(C)C(=O)C(O)=C3C(C)(C)C(=O)C=CC3(C)C12 (centres undefined) | HepG2 | y
CCOCC(=O)N1CC[C@H]2CNC[C@H]21 | HepG2 | n

Test call for this molecule, please: CC(=O)O[C@H]1C[C@@H](OC(C)=O)C(C)(C)[C@@H]2C[C@@H](OC(C)=O)[C@]3(C)[C@H](CC[C@@]4(C)[C@H](c5ccoc5)C[C@H]5O[C@@]534)[C@@]12C n

====

# System: HepG2
# assay method text: cytotoxicity call (relative viability < 0.9)
# settings: 10 µM
In all, about 39,000 compounds went through this assay and about 3,300 (8.5%) were called active. For the sample, actives were picked, then their nearest neighbours and some compounds at random.
Your reply should match one of these outcome classes. active, inactive

compound | cat
c1ccc2sc(C3(N4CCCCC4)CCCCC3)cc2c1 | inactive

Test call for this compound, please: OCC(O)C1OC2OC(C(Cl)(Cl)Cl)OC2C1O (configuration not stated) inactive

Test call for this compound, please: CN1CCN(CC2CC2)C(=O)C12CCNCC2 inactive

Test call for this compound, please: NCCc1nnc2n1CCCCC2 inactive

Test call for this compound, please: CNC(C)(C)Cc1ccccc1.O=S(=O)(O)O inactive

Test call for this compound, please: CCCC(=O)c1c(O)[nH]c(=O)[nH]c1=O inactive

Test call for this compound, please: COc1ccc2c3c([nH]c2c1)C(C)=NCC3 inactive

Test call for this compound, please: Cc1ccc(CC2(N)CC2)cc1 inactive

====

# Test system: HepG2
# assay method text: cytotoxicity call (relative viability < 0.9)
# settings: 10 µM
About 3,300 (8.5%) of roughly 39,000 compounds were called active. Only a selection was taken, and actives are over-represented in it overall.
Your reply should match one of these outcome classes. active, inactive

compound | cat
COc1ccc(OC)c(CN)c1 | inactive
c1cnc(N[C@@H]2CO[C@@]3(CCNC3)C2)cn1 | inactive
CC(=O)O[C@H]1C[C@H](O[C@H]2[C@@H](O)C[C@H](O[C@H]3[C@@H](O)C[C@H](O[C@H]4CC[C@@]5(C)[C@@H](CC[C@H]6[C@@H]5C[C@@H](O)[C@]5(C)[C@@H](C7=CC(=O)OC7)CC[C@]65O)C4)O[C@@H]3C)O[C@@H]2C)O[C@H](C)[C@H]1O[C@@H]1O[C@H](CO)[C@@H](O)[C@H](O)[C@H]1O | active

Test call for this compound, please: COc1ccc([C@H]2CC(=O)N3CCNC[C@@H]23)cc1 inactive

Test call for this compound, please: CS(=O)(=O)N1CCO[C@]2(COCCN(Cc3ccncc3)C2)C1 inactive

====

# Test system: HepG2
# assay method text: cytotoxicity call (relative viability < 0.9)
# settings: 10 µM
Out of some 39,000 compounds screened, about 3,300 (8.5%) were called active. This is one part of a sample in which actives are shown more often than they occur.
Your reply should match one of these outcome classes. active, inactive

compound | cat
C[C@@H]1CN([C@H](C)CO)C(=O)c2c(c3ccccc3n2C)-c2ccccc2CO[C@H]1CN(C)C(=O)Oc1ccccc1 | inactive

Test call for this compound, please: NCCc1c[nH]c2ccccc12 inactive

Test call for this compound, please: CC(C)[C@H]1CN2CCC[C@H]2[C@@]2(O)O[C@](CC(=O)[C@@H]3C=C4c5cccc6[nH]cc(c56)C[C@H]4N(C)C3)(C(C)C)C(=O)N12 inactive

Test call for this compound, please: O=[N+]([O-])c1c(NCCO)ccc2nonc12 inactive

Test call for this compound, please: CCCCS(=O)(=O)N1C[C@H]2CNC[C@@H]2C1 inactive

====

# System: HepG2
# assay method text: cytotoxicity call (relative viability < 0.9)
# settings: 10 µM
Out of some 39,000 compounds screened, about 3,300 (8.5%) were called active. Only a selection was taken, and actives are over-represented in it overall.
Your reply should match one of these outcome classes. yes = active, no = inactive

compound | cat
CC1(C)C(O)CC(O)C2(C)C1CC(=O)C1(C)C2CCC2(C)C(c3ccoc3)OC(=O)C3OC321 (centres undefined) | no
CC(=O)OC1CC(OC(C)=O)C2(C)C(CC(OC(C)=O)C3(C)C2CCC2(C)C(c4ccoc4)C(=O)C4OC423)C1(C)C (centres undefined) | no
CC1(C)C(=O)C=CC2(C)C1CC(O)C1(C)C2CCC2(C)C(c3ccoc3)OC(=O)C3OC321 (centres undefined) | yes

Test call for this compound, please: NC(=O)c1cn([C@H]2O[C@@H](CO)[C@H](O)[C@@H]2O)c2ncnc(N)c12 yes

====

# Test system: HepG2
# assay method text: cytotoxicity call (relative viability < 0.9)
# settings: 10 µM
Screen size: about 39,000 compounds; about 3,300 (8.5%) were called active. Many of the other results were omitted from the sample, so actives are more common in it than they were.
Your reply should match one of these outcome classes. 1.0 = active, 0.0 = inactive

compound | measurement target | cat
Cc1cc2c(C(C)C)c(O)c(O)c(C=O)c2c(O)c1-c1c(C)cc2c(C(C)C)c(O)c(O)c(C=O)c2c1O | HepG2 | 0.0
Cc1ccc(OC(=O)N(C)C[C@H]2OCc3ccccc3-c3c(n(C)c4ccccc34)C(=O)N([C@@H](C)CO)C[C@@H]2C)cc1 | HepG2 | 1.0
NC1Cc2ccccc2C1 | HepG2 | 0.0
CCNC1(c2cccs2)CCCCC1=O.Cl (stereo not given) | HepG2 | 0.0
CC12CCC3C(CC=C4CC(O)CCC43C)C1CCC2=O (stereo not given) | HepG2 | 0.0

Continue with the next compound.
Test call for this compound, please: NCC1(c2ccc(Cl)cc2)CC1 0.0

====

# Tested on: HepG2
# assay method text: cytotoxicity call (relative viability < 0.9)
# settings: 10 µM
Hit rate of the full screen: of about 39,000 compounds, about 3,300 (8.5%) were called active. The entries come from a sample that favours actives as a whole.
Your reply should match one of these outcome classes. active, inactive

Study these solved cases before continuing.
compound | cat
C/C=C(/C)C(=O)O[C@H]1CC[C@@]2(C)[C@@H]3CC[C@H]4[C@]5(O)C[C@H](O)[C@@]6(O)[C@@H](CN7C[C@@H](C)CC[C@H]7[C@@]6(C)O)[C@]5(O)C[C@@]42O[C@@]13O | inactive
CC[C@@H](C)C(=O)O[C@@H]1C[C@@]2(C)[C@H](c3ccoc3)OC(=O)C[C@]23O[C@@]2(C)O[C@]34[C@H](OC(=O)C(C)C)[C@@]3(O)[C@@H](OC(=O)[C@@]5(C)O[C@@H]5C)[C@@]5(C)C[C@]3(O)[C@@](C)([C@H]5CC(=O)OC)[C@@]14O2 | inactive
Clc1nc(N2CCNCC2)c2[nH]cnc2n1 | inactive
O=[N+]([O-])c1cc([As](=O)(O)O)ccc1O | inactive
Nc1ccccc1N1CCNCC1 | inactive

Test call for this compound, please: O=C(NCc1ccccn1)[C@]12CNC[C@H]1COC2 inactive

Test call for this compound, please: CCN1C[C@]2(OC(=O)c3ccccc3NC(C)=O)CC[C@@H](OC)[C@@]34[C@H]5C[C@@H]6[C@@H](OC)C[C@](O)([C@@H](C[C@@H]23)[C@@H]14)[C@]5(O)[C@H]6OC inactive

Test call for this compound, please: O=C1NCc2cnnn2-c2ccccc21 inactive

Test call for this compound, please: NC[C@H](CC(=O)O)c1ccc(Cl)cc1 inactive

Test call for this compound, please: C[N+](C)(C)CCCl inactive

Test call for this compound, please: CC(=O)Oc1ccc(Cl)c2cccnc12 active

Test call for this compound, please: C[C@H]1O[C@H](n2cnc3c(N)ncnc32)C[C@H]1O inactive

Test call for this compound, please: COc1ccc2c(c1OC)C(=O)OC2C1c2cc3c(cc2CCN1C)OCO3 (centres undefined) inactive

Test call for this compound, please: CC12CCC(=O)C=C1CCC1C2CCC2(C)C(O)CCC12 (centres undefined) inactive

Test call for this compound, please: O[C@H]1C2CN3CCN(C2)CC1(c1ccccc1)C3 inactive

Test call for this compound, please: O=C(O)CF.[NaH] inactive

Test call for this compound, please: Cc1ccc2nc(CCN)[nH]c2c1 inactive

Test call for this compound, please: O=C(NCc1ccccc1)[C@H]1C[C@H]2CNC[C@H]1O2 inactive

Test call for this compound, please: OCc1ccc2c(c1)OCO2 inactive

Test call for this compound, please: C[C@H](N)[C@H](O)c1ccc(O)c(O)c1 inactive

Test call for this compound, please: O=C(O)CC[N+](=O)[O-] inactive

Test call for this compound, please: CC(=O)N[C@@H]1[C@H](O[C@@H]2O[C@H](C[C@@H](O)[C@H]3O[C@@H](n4ccc(=O)[nH]c4=O)[C@H](O)[C@@H]3O)[C@H](O)[C@H](O)[C@H]2NC(=O)/C=C/CCCCCCCCC(C)C)O[C@@H](CO)[C@H](O)[C@H]1O active

Test call for this compound, please: C[C@H]1O[C@H](C[N+](C)(C)C)C[C@@H]1O inactive

Test call for this compound, please: CN1CC2(CNC2)OCCS1(=O)=O inactive

Test call for this compound, please: CC[C@@H](N)[C@@H](O)c1ccc(O)c(O)c1 inactive

Test call for this compound, please: [N-]=[N+]=Nc1ccc2[nH]ccc2c1 inactive
